FYI, the data here is from patent US8530667B2.

Test system: Setaria faberi (SETFA)
ASSAY_REMARKS: Example B pre-emergence herbicidal activity, glasshouse pot test
Assay type: in vivo
EXPERIMENTAL_CONDITIONS: 312 h, Rate 250 g/ha, evaluated after 13 days, read-out: Pre-Emergence Activity SETFA (100=total damage to plant; 0=no damage to plant)
READOUT_NAME: pest or weed control at 250 g/ha (%)
Write the number in % without appending the unit.

Cc1cc(Br)ccc1-c1nc(C2=C(OC(=O)C(C)(C)C)[C@@H]3[C@H](C2=O)[C@H]2CC[C@@H]3O2)c(C)s1 (racemic)	100
CCc1sc(-c2ccc(Br)cc2C)nc1C1=C(OC(=O)c2ccc(Cl)cc2)[C@@H]2[C@H](C1=O)[C@H]1CC[C@@H]2O1 (racemic)	100
Cc1sc(-c2ccc(Cl)s2)nc1C1C(=O)[C@@H]2[C@H](C1=O)[C@H]1CC[C@@H]2O1 (stereo partly shown)	90
Cc1ccc(-c2nc(C3C(=O)[C@@H]4[C@H](C3=O)[C@H]3CC[C@@H]4O3)c(C)s2)cc1 (stereo partly shown)	80
CCc1sc(-c2ccc(OC(F)F)cc2)nc1C1C(=O)[C@@H]2[C@H](C1=O)[C@H]1CC[C@@H]2O1 (stereo partly shown)	100

**Query** Value lookup for pest or weed control at 250 g/ha; key = Cc1sc(-c2ccc([S+](C)[O-])cc2)nc1C1C(=O)[C@@H]2[C@H](C1=O)[C@H]1CC[C@@H]2O1 (stereo partly shown)
**Result** 90

**Query** Try this molecule next: Cc1sc(-c2ccc(OC(F)F)cc2Cl)nc1C1=C(OC(=O)C(C)(C)C)[C@@H]2[C@H](C1=O)[C@H]1CC[C@@H]2O1 (racemic)
**Result** 90

----------
Test system: Setaria faberi (SETFA)
ASSAY_REMARKS: Example B pre-emergence herbicidal activity, glasshouse pot test
Assay type: in vivo
EXPERIMENTAL_CONDITIONS: 312 h, Rate 250 g/ha, evaluated after 13 days, read-out: Pre-Emergence Activity SETFA (100=total damage to plant; 0=no damage to plant)
READOUT_NAME: pest or weed control at 250 g/ha (%)
Write the number in % without appending the unit.

Cc1cnc(-c2ccc(Cl)cc2)nc1C1C(=O)[C@@H]2[C@H](C1=O)[C@H]1CC[C@@H]2O1 (stereo partly shown)	90
Cc1sc(-c2cccs2)nc1C1C(=O)[C@@H]2[C@H](C1=O)[C@H]1CC[C@@H]2O1 (stereo partly shown)	40
Cc1sc(-c2ccc(Cl)c(Cl)c2)nc1C1C(=O)[C@@H]2[C@H](C1=O)[C@H]1CC[C@@H]2O1 (stereo partly shown)	90
CSc1ccc(-c2nc(C3C(=O)[C@@H]4[C@H](C3=O)[C@H]3CC[C@@H]4O3)c(C)s2)cc1 (stereo partly shown)	90
Cc1sc(-c2ccc(OC(F)F)cc2Cl)nc1C1C(=O)[C@@H]2[C@H](C1=O)[C@H]1CC[C@@H]2O1 (stereo partly shown)	100
CCc1sc(COc2ccc(Cl)cc2)nc1C1C(=O)[C@@H]2[C@H](C1=O)[C@H]1CC[C@@H]2O1 (stereo partly shown)	100

**Query** Reported pest or weed control at 250 g/ha for Setaria faberi (SETFA), given CCc1sc(-c2cc(F)c(Cl)cc2Cl)nc1C1C(=O)[C@@H]2[C@H](C1=O)[C@H]1CC[C@@H]2O1 (stereo partly shown) ?
**Result** 100

----------
# Lookup of reported pest or weed control at 250 g/ha keyed by entry
Tested on: Avena fatua (AVEFA)
ASSAY_REMARKS: Example A pre-emergence herbicidal activity, glasshouse pot test
Assay type: in vivo
EXPERIMENTAL_CONDITIONS: Rate 250 g/ha, evaluated 19 or 20 days later, read-out: Pre-Emergence Activity AVEFA (100=total damage to plant; 0=no damage to plant)
Write the number in % without appending the unit.

Consider the reported pest or weed control at 250 g/ha for these molecules:
COc1ccc(-c2nc(C3C(=O)[C@@H]4[C@H](C3=O)[C@H]3CC[C@@H]4O3)c(C)s2)cc1 (stereo partly drawn) [Compound T21]	70
CCc1sc(-c2ccc(Cl)cc2)nc1C1C(=O)[C@@H]2[C@H](C1=O)[C@@]1(C)CC[C@]2(C)O1 (stereo partly drawn) [Compound T27]	60

Let us examine a further case.
**Query** Value lookup for pest or weed control at 250 g/ha; key = Cc1sc(-c2ccc(Cl)cc2)nc1C1C(=O)[C@H]2[C@@H]3CC[C@@](C)(O3)[C@H]2C1=O (mixture of isomers) [Compound T24]
**Result** 60

----------
Test system: Amaranthus retoflexus (AMARE)
ASSAY_REMARKS: Example B post-emergence herbicidal activity, glasshouse pot test
Assay type: in vivo
EXPERIMENTAL_CONDITIONS: Amaranthus retroflexus, 312 h, rate 1000 g/ha, evaluated after 13 days, read-out: Post-emergence activity AMARE (100=total damage to plant; 0=no damage to plant)
# Lookup of reported pest or weed control at 1000 g/ha keyed by entry
Write the number in % without appending the unit.

Consider the reported pest or weed control at 1000 g/ha for these molecules:
COC(=O)c1ccc(-c2cc(C3C(=O)[C@@H]4[C@H](C3=O)[C@H]3CC[C@@H]4O3)c(C)s2)cc1 (stereo partly shown) [Compound T19]	20
Cc1sc(-c2cc(C(F)(F)F)n(C)n2)cc1C1C(=O)[C@@H]2[C@H](C1=O)[C@H]1CC[C@@H]2O1 (stereo partly shown) [Compound T18]	0

**Query** Value lookup for pest or weed control at 1000 g/ha; key = COc1ccc(-c2nc(C3C(=O)[C@@H]4[C@H](C3=O)[C@H]3CC[C@@H]4O3)c(C)s2)cc1 (stereo partly shown) [Compound T21]
**Result** 0

**Query** Try this molecule next: CCc1sc(-c2ccc(Cl)cc2)cc1C1C(=O)[C@@H]2[C@H](C1=O)[C@H]1CC[C@@H]2O1 (stereo partly shown) [Compound T17]
**Result** 70

----------
Tested on: Alopecurus myosuroides (ALOMY)
ASSAY_REMARKS: Example B pre-emergence herbicidal activity, glasshouse pot test
Format: in vivo
EXPERIMENTAL_CONDITIONS: 312 h, Rate 250 g/ha, evaluated after 13 days, read-out: Pre-Emergence Activity ALOMY (100=total damage to plant; 0=no damage to plant)
// classify: if (pest or weed control at 250 g/ha < 50%) condition met else condition not met

Check out these entries, answers already filled in.
CCc1sc(-c2ccc(Br)cc2C)nc1C1=C(OC(=O)c2ccc(Cl)cc2)[C@@H]2[C@H](C1=O)[C@H]1CC[C@@H]2O1 (racemic)	condition not met
CCc1sc(-c2ccc(Br)cn2)nc1C1C(=O)[C@@H]2[C@H](C1=O)[C@H]1CC[C@@H]2O1 (stereo partly drawn)	condition met
Cc1cc(Br)ccc1-c1nc(C2C(=O)[C@@H]3[C@H](C2=O)[C@H]2CC[C@@H]3O2)c(C)s1 (stereo partly drawn)	condition not met
CSc1ccc(-c2nc(C3C(=O)[C@@H]4[C@H](C3=O)[C@H]3CC[C@@H]4O3)c(C)s2)cc1 (stereo partly drawn)	condition met

**Query** Is pest or weed control at 250 g/ha of CCc1sc(-c2ccc(Br)cc2C)nc1C1C(=O)[C@@H]2[C@H](C1=O)[C@H]1CC[C@@H]2O1 (stereo partly drawn) strictly below 50%?
**Result** condition not met

----------
# Lookup of reported pest or weed control at 250 g/ha keyed by entry
System: Avena fatua (AVEFA)
ASSAY_REMARKS: Example A pre-emergence herbicidal activity, glasshouse pot test
Format: in vivo
EXPERIMENTAL_CONDITIONS: Rate 250 g/ha, evaluated 19 or 20 days later, read-out: Pre-Emergence Activity AVEFA (100=total damage to plant; 0=no damage to plant)
Write the number in % without appending the unit.

Cc1csc(C)c1C1C(=O)[C@@H]2[C@H](C1=O)[C@H]1CC[C@@H]2O1 (stereo partly shown)	10

**Query** Value lookup for pest or weed control at 250 g/ha; key = CCc1c(Br)sc(C)c1C1C(=O)[C@@H]2[C@H](C1=O)[C@H]1CC[C@@H]2O1 (stereo partly shown)
**Result** 60

**Query** Try this compound next: Cc1sc(-c2ccc(Cl)cc2)nc1C1C(=O)[C@@H]2[C@H](C1=O)[C@@]1(C)CC[C@]2(C)O1 (stereo partly shown)
**Result** 60

**Query** Try this compound next: Cc1sc(-c2ccc(Cl)cc2)nc1C1C(=O)[C@@H]2[C@H](C1=O)[C@H]1CC[C@@H]2O1 (stereo partly shown)
**Result** 100

**Query** Try this compound next: Cc1sc(-c2ccc(Br)cc2)nc1C1C(=O)[C@@H]2[C@H](C1=O)[C@H]1CC[C@@H]2O1 (stereo partly shown)
**Result** 100

**Query** Try this compound next: Cc1sc(-c2ccc(Cl)cc2)cc1C1=C(OC(=O)C(C)C)[C@@H]2[C@H](C1=O)[C@H]1CC[C@@H]2O1 (racemic) [Compound P2]
**Result** 0

**Query** Try this compound next: CCc1csc(CC)c1C1C(=O)[C@@H]2[C@H](C1=O)[C@H]1CC[C@@H]2O1 (stereo partly shown)
**Result** 10
